Value source: patent US20140178935A1

- SYSTEM NAME: hHGF-Fc C561R (recombinant hHGF protein containing a cysteine to arginine substitution at position 561) (human)
- Sequence (chain, as listed by the source C561R C561R limits assumed): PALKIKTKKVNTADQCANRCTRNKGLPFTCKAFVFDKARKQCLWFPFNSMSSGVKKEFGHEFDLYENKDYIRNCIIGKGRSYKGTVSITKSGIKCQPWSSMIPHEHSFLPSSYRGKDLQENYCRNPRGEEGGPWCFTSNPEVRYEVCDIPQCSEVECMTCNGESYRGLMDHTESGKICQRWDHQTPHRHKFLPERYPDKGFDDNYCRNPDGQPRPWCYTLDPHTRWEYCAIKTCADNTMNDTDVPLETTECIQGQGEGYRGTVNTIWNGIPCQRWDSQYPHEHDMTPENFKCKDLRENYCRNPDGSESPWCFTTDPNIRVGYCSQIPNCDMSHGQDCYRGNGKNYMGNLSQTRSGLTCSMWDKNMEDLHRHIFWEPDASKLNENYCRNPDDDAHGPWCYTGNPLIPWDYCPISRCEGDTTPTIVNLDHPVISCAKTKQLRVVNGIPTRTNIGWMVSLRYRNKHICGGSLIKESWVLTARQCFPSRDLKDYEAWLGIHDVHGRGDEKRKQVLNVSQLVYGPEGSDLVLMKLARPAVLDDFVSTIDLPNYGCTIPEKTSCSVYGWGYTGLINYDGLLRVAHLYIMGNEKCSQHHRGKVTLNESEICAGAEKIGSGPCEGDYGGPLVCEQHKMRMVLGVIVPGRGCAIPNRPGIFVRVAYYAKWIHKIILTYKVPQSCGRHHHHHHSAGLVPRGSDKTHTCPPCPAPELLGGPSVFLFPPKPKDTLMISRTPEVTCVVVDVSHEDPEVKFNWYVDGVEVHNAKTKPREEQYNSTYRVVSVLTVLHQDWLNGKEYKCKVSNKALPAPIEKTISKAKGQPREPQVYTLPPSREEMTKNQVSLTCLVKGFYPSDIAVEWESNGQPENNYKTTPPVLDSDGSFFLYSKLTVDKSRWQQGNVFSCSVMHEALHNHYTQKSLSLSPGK
- ASSAY TEXT: SPR, antibody immobilized, HGF protein injected, 25 C

{"columns": ["BINDER", "binding result"],
 "data": [
  ["anti-hHGF monoclonal antibody 1A3 (antibody, mouse IgG1, kappa, V domains shown, Murine IgG1 kappa from hybridoma) VH: EVQLVESGGGLVQPGGSLKLSCAASEFTFSNYYMSWVRQTPEKRLQWVAYISPGGGSSYYPASVKGRFTISRDNAKNTLYLQMSSLKSEDTAMYYCARQGDGYYGDYAMDYWGQGTSVTVSS VL: DIQMTQSPASLSVSVGETVTITCRASENIYSNLAWYQQKQGKSPQLLVYAATNLADGVPSRFSGSGSGTQFSLKINSLQSEDFGTYYCQHFWGTPYTFGGGTKLEIKR", "binds"],
  ["anti-hHGF monoclonal antibody 3B6 (antibody, mouse IgG1, kappa, V domains shown, Murine IgG1 kappa from hybridoma) VH: QVQLQQSGAELVRPGSSVKISCKASGYVFSSYWMNWVKQRPGQGLEWIGQIYPGDGDSNYNGNFKGKATLTADKSSSTAYMQLSSLTSEDSAVYFCASQLGLRENYFDYWGQGTTLTVSS VL: DIKMTQSPSSMYASLGERVTITCKASQDIKSYLSWFQQKPGKSPKTLIYRVNRLVDGVPSRFSGSGSGQDSSLTITSLENEDMGIYYCLQYDEFPFTFGGGTKLEIKR", "binds"]
]}
